- ASSAY_EXPLANATION: RP, Thermo Scientific Hypersil GOLD, 200 × 2.1 mm, 1.9 µm, 40 °C, 0.4 mL/min, estimated dead time 1.1 min; A: water + 0.2% formic acid; B: acetonitrile; gradient (min/%B) 0/10 0.5/10 22/100 30/100 30.2/10 35/10
- MEASUREMENT_PARAMETERS: stereoisomer not certain
RESULT_TYPE: LC retention time (min)

Some compounds with known LC retention time results, for comparison:
[
  {
    "COMPOUND": "O=c1c(O)c(-c2ccc(O)cc2)oc2cc(O)cc(O)c12",
    "RESULT_UNITS": "min",
    "LC retention time": 9.01
  },
  {
    "COMPOUND": "COc1cc(-c2oc3cc(O)cc(O)c3c(=O)c2O)ccc1O",
    "RESULT_UNITS": "min",
    "LC retention time": 9.25
  },
  {
    "COMPOUND": "O=C(O)c1cc(O)c(O)c(O)c1",
    "RESULT_UNITS": "min",
    "LC retention time": 1.6
  },
  {
    "COMPOUND": "CC1OC(Oc2c(-c3ccc(O)c(O)c3)oc3cc(O)cc(O)c3c2=O)C(O)C(O)C1O (configuration not stated) [quercetin 3-rhamnoside]",
    "RESULT_UNITS": "min",
    "LC retention time": 6.02
  }
]

1: CC1OC(OCC2OC(Oc3c(-c4ccc(O)cc4)oc4cc(O)cc(O)c4c3=O)C(O)C(O)C2O)C(O)C(O)C1O (configuration not stated) [kaempferol 3-rutinoside]
2: CC1(C(=O)O)CCC2(C)CCC3(C)C(=CC(=O)C4C5(C)CCC(O)C(C)(C)C5CCC43C)C2C1 (configuration not stated)
So which one has the bigger LC retention time here, 1 or 2 ? State the label of the item chosen.
2
